- Method notes: Inhibition of HCV genotype 1b NS5A infected in Huh7 cells assessed as reduction in viral replication incubated 3 days and measured by Bright-Glo luciferase assay
Quantity measured: EC50

COC(=O)N[C@H](C(=O)N1CCC[C@H]1c1ncc(-c2ccc(C#CC#Cc3cnc([C@@H]4CCCN4C(=O)[C@@H](NC(=O)OC)C(C)C)[nH]3)cc2)[nH]1)c1ccccc1 : 12 pM

Output measured EC50 for this item: `COC(=O)N[C@H](C(=O)N1CCC[C@H]1c1ncc(-c2ccc(C#CC#Cc3cnc([C@@H]4CCCN4C(=O)[C@H](NC(=O)OC)c4ccccc4)[nH]3)c(-c3ccc(N4CCN(C)CC4)cc3)c2)[nH]1)C(C)C`
4 pM

# return recorded EC50 for entry `COC(=O)N[C@H](C(=O)N1CCC[C@H]1c1ncc(-c2ccc(C#CC#Cc3cnc([C@@H]4CCCN4C(=O)[C@H](NC(=O)OC)c4ccccc4)[nH]3)c(-c3ccccc3)c2)[nH]1)C(C)C`
2.9 pM

Give me measured EC50, please, for this compound: `COC(=O)N[C@H](C(=O)N1CCC[C@H]1c1ncc(C#CC#Cc2ccc(-c3cnc([C@@H]4CCCN4C(=O)[C@@H](NC(=O)OC)C(C)C)[nH]3)cc2)[nH]1)c1ccccc1`
12 pM
